Value source: paper PMC7802075

Each record here notes measured 20mM inhibition LmjIPCS.
- Experimental Target: LmjIPCS (inositol phosphorylceramide synthase from L. major) (Leishmania major, UniProt E9AFX2)
- Protocol: biochemical
- Format: biochemical
Quantity Measured: 20mM inhibition LmjIPCS (%)

[[record]]
compound = "CCN1CCN(C(=O)N[C@@H](C(=O)N[C@@H]2C(=O)N3[C@@H]2SC(C)(C)[C@@H]3C(=O)O)c2ccccc2)C(=O)C1=O [PIPERACILLIN]"
quantity_measured = "20mM inhibition LmjIPCS"
value_reported = 60

[[record]]
compound = "c1ccc(-c2ccc(C(c3ccccc3)n3ccnc3)cc2)cc1 (stereo not shown) [BIFONAZOLE]"
quantity_measured = "20mM inhibition LmjIPCS"
value_reported = 52

[[record]]
compound = "CCN(CC)CCOCCOC(=O)C1(c2ccccc2)CCCC1 [CARBETAPENTANE]"
quantity_measured = "20mM inhibition LmjIPCS"
value_reported = 51

[[record]]
compound = "CN1CCN(CCCN2c3ccccc3Sc3ccc(C(F)(F)F)cc32)CC1 [trifluoperazine 16, trifluoperazine, reference compound]"
quantity_measured = "20mM inhibition LmjIPCS"
value_reported = 86

[[record]]
compound = "N=C(N)NC(=O)c1nc(Cl)c(N)nc1N [AMILORIDE]"
quantity_measured = "20mM inhibition LmjIPCS"
value_reported = 52

[[record]]
compound = "NS(=O)(=O)c1cc(C2(O)NC(=O)c3ccccc32)ccc1Cl (stereo not shown) [CHLORTHALIDONE]"
quantity_measured = "20mM inhibition LmjIPCS"
value_reported = 42

[[record]]
compound = "COc1ccc2c3c([nH]c2c1)C(C)=NCC3 [HARMALINE]"
quantity_measured = "20mM inhibition LmjIPCS"
value_reported = 54

[[record]]
compound = "Oc1c(Br)cc(Br)c2cccnc12 [BROXYQUINOLINE]"
quantity_measured = "20mM inhibition LmjIPCS"
value_reported = 61

[[record]]
compound = "Nc1c2c(nc3ccccc13)CCCC2O.O=C(O)/C=C\\C(=O)O (stereo not shown) [HYDROXYTACRINE MALEATE]"
quantity_measured = "20mM inhibition LmjIPCS"
value_reported = 11

[[record]]
compound = "O=c1ccc2cc(O[C@@H]3O[C@H](CO)[C@@H](O)[C@H](O)[C@H]3O)c(O)cc2o1 [AESCULIN]"
quantity_measured = "20mM inhibition LmjIPCS"
value_reported = 10

[[record]]
compound = "CN(C)CCc1c[nH]c2ccc(C[C@H]3COC(=O)N3)cc12 [ZOLMITRIPTAN]"
quantity_measured = "20mM inhibition LmjIPCS"
value_reported = 44

[[record]]
compound = "Cc1oncc1C(=O)Nc1ccc(C(F)(F)F)cc1 [LEFUNOMIDE]"
quantity_measured = "20mM inhibition LmjIPCS"
value_reported = 10

[[record]]
compound = "CN(C)CCCN1c2ccccc2Sc2ccc(Cl)cc21 [chlorpromazine 3, chlorpromazine, reference compound]"
quantity_measured = "20mM inhibition LmjIPCS"
value_reported = 88


* * *

- Experimental Target: LmjIPCS (inositol phosphorylceramide synthase from L. major) (Leishmania major)
- Sequence (E9AFX2 1-338): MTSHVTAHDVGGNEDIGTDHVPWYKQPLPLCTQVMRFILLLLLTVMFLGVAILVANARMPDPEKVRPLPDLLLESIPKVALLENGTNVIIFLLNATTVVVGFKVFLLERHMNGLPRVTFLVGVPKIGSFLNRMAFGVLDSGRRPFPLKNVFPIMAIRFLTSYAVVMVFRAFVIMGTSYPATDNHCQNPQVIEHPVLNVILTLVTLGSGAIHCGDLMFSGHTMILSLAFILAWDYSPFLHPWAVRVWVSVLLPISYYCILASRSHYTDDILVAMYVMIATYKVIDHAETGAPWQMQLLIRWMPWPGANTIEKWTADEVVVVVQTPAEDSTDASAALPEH
- Protocol: biochemical
- Assay type: biochemical
- Design: dose or concentration left out as unconfirmed
- Condition Label: NINDS set screen; read-out: inhibition LmjIPCS
Binary call on inhibition: YES from 20% upward, NO beneath that.

[[record]]
compound = "Oc1c(I)cc(I)c2cccnc12 [IODOQUINOL]"
class_name = "YES"

[[record]]
compound = "Cc1cccc(Nc2ccccc2C(=O)O)c1C [MEFENAMIC ACID]"
class_name = "NO"

[[record]]
compound = "Cn1c(=O)c2c(ncn2CC(O)CO)n(C)c1=O (stereo not drawn) [DYPHYLLINE]"
class_name = "NO"

[[record]]
compound = "O=C1c2ccccc2C(=O)C1c1ccccc1 [PHENINDIONE]"
class_name = "YES"

[[record]]
compound = "O=C1c2ccc(O)c(O)c2C(=O)c2c(O)ccc(O)c21 [QUINALIZARIN]"
class_name = "NO"

[[record]]
compound = "CCCCN(CCCC)CCCOC(=O)c1ccc(N)cc1 [BUTACAINE]"
class_name = "NO"

[[record]]
compound = "CC(=O)OCC(COC(C)=O)OC(C)=O [TRIACETIN]"
class_name = "YES"

[[record]]
compound = "CC1=C(/C=C/C(C)=C/C=C/C(C)=C/CO)C(C)(C)CCC1 [RETINOL]"
class_name = "YES"

[[record]]
compound = "O=C(CCCN1CCC2(CC1)C(=O)NCN2c1ccccc1)c1ccc(F)cc1 [SPIPERONE]"
class_name = "NO"

[[record]]
compound = "O=[N+]([O-])c1cccc2cn[nH]c12 [7-NITROINDAZOLE]"
class_name = "YES"

[[record]]
compound = "O=C(NCO)c1cccnc1 [N-HYDROXYMETHYLNICOTINAMIDE]"
class_name = "NO"

[[record]]
compound = "COc1ccc2cc(CCC(C)=O)ccc2c1 [NABUMETONE]"
class_name = "NO"

[[record]]
compound = "CS(=O)(=O)c1ccc(C2=C(c3ccccc3)C(=O)OC2)cc1 [ROFECOXIB]"
class_name = "NO"

[[record]]
compound = "O=C(O)C1=CCCNC1 [GUVACINE]"
class_name = "NO"

[[record]]
compound = "COc1cc(C(=O)NCc2ccc(OCCN(C)C)cc2)cc(OC)c1OC [TRIMETHOBENZAMIDE]"
class_name = "YES"


* * *

- Experimental Target: LmjIPCS (inositol phosphorylceramide synthase from L. major) (Leishmania major)
- Protocol: biochemical
- Type: biochemical
Quantity Measured: 20mM inhibition LmjIPCS (%)

[[record]]
compound = "CC1=C2C(=CO[C@H](C)[C@H]2C)C(O)=C(C(=O)O)C1=O [CITRININ]"
value_reported = 76

[[record]]
compound = "C[C@@H]1C[C@H]2[C@@H]3CCC4=CC(=O)C=C[C@]4(C)[C@@]3(F)[C@@H](O)C[C@]2(C)[C@@]1(O)C(=O)CO [DEXAMETHASONE]"
value_reported = 44

[[record]]
compound = "CC1=NN(c2ccccc2)C(=O)C1 [3-METHYL-1-PHENYL-2-PYRAZOLIN-5-ONE]"
value_reported = 4.33


* * *

- Experimental Target: LmjIPCS (inositol phosphorylceramide synthase from L. major) (Leishmania major)
- Protocol: biochemical
- Type: biochemical
- Design: dose or concentration left out as unconfirmed
- Condition Label: read-out: inhibition LmjIPCS
Each record here notes measured inhibition.
Quantity Measured: inhibition (%)

[[record]]
compound = "CCOC(=O)n1ccn(C)c1=S"
experimental_target = "LmjIPCS (inositol phosphorylceramide synthase from L. major) (Leishmania major)"
quantity_measured = "inhibition"
unit_of_measurement = "%"
value_reported = 12

[[record]]
compound = "CC(C)(C)NC[C@H](O)COc1nsnc1N1CCOCC1"
experimental_target = "LmjIPCS (inositol phosphorylceramide synthase from L. major) (Leishmania major)"
quantity_measured = "inhibition"
unit_of_measurement = "%"
value_reported = 22

[[record]]
compound = "NCCCCC(=O)O"
experimental_target = "LmjIPCS (inositol phosphorylceramide synthase from L. major) (Leishmania major)"
quantity_measured = "inhibition"
unit_of_measurement = "%"
value_reported = -2.68

[[record]]
compound = "CC(C)Cc1ccc(C(C)C(=O)O)cc1 (centres unmarked)"
experimental_target = "LmjIPCS (inositol phosphorylceramide synthase from L. major) (Leishmania major)"
quantity_measured = "inhibition"
unit_of_measurement = "%"
value_reported = 2.58

[[record]]
compound = "N[C@@H](Cc1ccc(O)c(O)c1)C(=O)O"
experimental_target = "LmjIPCS (inositol phosphorylceramide synthase from L. major) (Leishmania major)"
quantity_measured = "inhibition"
unit_of_measurement = "%"
value_reported = 21

[[record]]
compound = "O=c1[nH]cc(F)c(=O)[nH]1"
experimental_target = "LmjIPCS (inositol phosphorylceramide synthase from L. major) (Leishmania major)"
quantity_measured = "inhibition"
unit_of_measurement = "%"
value_reported = 4.66

[[record]]
compound = "CC(=O)N(O)CCCCCNC(=O)CCC(=O)N(O)CCCCCNC(=O)CCC(=O)N(O)CCCCCN"
experimental_target = "LmjIPCS (inositol phosphorylceramide synthase from L. major) (Leishmania major)"
quantity_measured = "inhibition"
unit_of_measurement = "%"
value_reported = -4.52

[[record]]
compound = "Cc1c(N(C)C)c(=O)n(-c2ccccc2)n1C"
experimental_target = "LmjIPCS (inositol phosphorylceramide synthase from L. major) (Leishmania major)"
quantity_measured = "inhibition"
unit_of_measurement = "%"
value_reported = -19

[[record]]
compound = "CN1C[C@H](CNC(=O)OCc2ccccc2)C[C@@H]2c3cccc4c3c(cn4C)C[C@H]21"
experimental_target = "LmjIPCS (inositol phosphorylceramide synthase from L. major) (Leishmania major)"
quantity_measured = "inhibition"
unit_of_measurement = "%"
value_reported = 11

[[record]]
compound = "COC(=O)Nc1nc2ccc(C(=O)c3ccccc3)cc2[nH]1"
experimental_target = "LmjIPCS (inositol phosphorylceramide synthase from L. major) (Leishmania major)"
quantity_measured = "inhibition"
unit_of_measurement = "%"
value_reported = 18

[[record]]
compound = "COC(=O)[C@H]1[C@H]2C[C@H]3c4[nH]c5ccccc5c4CCN3C[C@H]2CC[C@@H]1O"
experimental_target = "LmjIPCS (inositol phosphorylceramide synthase from L. major) (Leishmania major)"
quantity_measured = "inhibition"
unit_of_measurement = "%"
value_reported = 12

[[record]]
compound = "C=C1CC[C@H](O)C/C1=C/C=C1\\CCC[C@]2(C)[C@@H]([C@H](C)/C=C/[C@H](C)C(C)C)CC[C@@H]12"
experimental_target = "LmjIPCS (inositol phosphorylceramide synthase from L. major) (Leishmania major)"
quantity_measured = "inhibition"
unit_of_measurement = "%"
value_reported = -1.77

[[record]]
compound = "COc1ccc(C[C@H](N)C(=O)N[C@H]2[C@@H](O)[C@H](n3cnc4c(N(C)C)ncnc43)O[C@@H]2CO)cc1"
experimental_target = "LmjIPCS (inositol phosphorylceramide synthase from L. major) (Leishmania major)"
quantity_measured = "inhibition"
unit_of_measurement = "%"
value_reported = 20

[[record]]
compound = "CCN(CC)C(=O)N1CCN(C)CC1"
experimental_target = "LmjIPCS (inositol phosphorylceramide synthase from L. major) (Leishmania major)"
quantity_measured = "inhibition"
unit_of_measurement = "%"
value_reported = -3

[[record]]
compound = "O=c1cc(CO)occ1O"
experimental_target = "LmjIPCS (inositol phosphorylceramide synthase from L. major) (Leishmania major)"
quantity_measured = "inhibition"
unit_of_measurement = "%"
value_reported = 11

[[record]]
compound = "COc1ccc(Cl)cc1C(=O)NCCc1ccc(S(=O)(=O)NC(=O)NC2CCCCC2)cc1 [GLYBURIDE]"
experimental_target = "LmjIPCS (inositol phosphorylceramide synthase from L. major) (Leishmania major)"
quantity_measured = "inhibition"
unit_of_measurement = "%"
value_reported = 13

[[record]]
compound = "CC(C)[N+](C)(CCC(C(N)=O)(c1ccccc1)c1ccccc1)C(C)C [ISOPROPAMIDE]"
experimental_target = "LmjIPCS (inositol phosphorylceramide synthase from L. major) (Leishmania major)"
quantity_measured = "inhibition"
unit_of_measurement = "%"
value_reported = 11

[[record]]
compound = "C[C@H]1COc2c(N3CCN(C)CC3)c(F)cc3c(=O)c(C(=O)O)cn1c23"
experimental_target = "LmjIPCS (inositol phosphorylceramide synthase from L. major) (Leishmania major)"
quantity_measured = "inhibition"
unit_of_measurement = "%"
value_reported = 11

[[record]]
compound = "CN(C)CCOC(C)(c1ccccc1)c1ccccn1 (centres unmarked)"
experimental_target = "LmjIPCS (inositol phosphorylceramide synthase from L. major) (Leishmania major)"
quantity_measured = "inhibition"
unit_of_measurement = "%"
value_reported = 9

[[record]]
compound = "OCCN1CCN(CCCN2c3ccccc3Sc3ccc(Cl)cc32)CC1"
experimental_target = "LmjIPCS (inositol phosphorylceramide synthase from L. major) (Leishmania major)"
quantity_measured = "inhibition"
unit_of_measurement = "%"
value_reported = 0.226

[[record]]
compound = "COc1ccc2c(c1)c(CC(=O)O)c(C)n2C(=O)c1ccc(Cl)cc1"
experimental_target = "LmjIPCS (inositol phosphorylceramide synthase from L. major) (Leishmania major)"
quantity_measured = "inhibition"
unit_of_measurement = "%"
value_reported = -3.42

[[record]]
compound = "O=c1[nH]c2cc(Cl)c(Cl)cc2[nH]c1=O [2,3-DIHYDROXY-6,7-DICHLOROQUINOXALINE]"
experimental_target = "LmjIPCS (inositol phosphorylceramide synthase from L. major) (Leishmania major)"
quantity_measured = "inhibition"
unit_of_measurement = "%"
value_reported = 4

[[record]]
compound = "COC1=CC(=O)C[C@@H](C)[C@]12Oc1c(Cl)c(OC)cc(OC)c1C2=O"
experimental_target = "LmjIPCS (inositol phosphorylceramide synthase from L. major) (Leishmania major)"
quantity_measured = "inhibition"
unit_of_measurement = "%"
value_reported = 28

[[record]]
compound = "CC1(C)S[C@@H]2[C@H](NC(=O)Cc3ccccc3)C(=O)N2[C@H]1C(=O)O"
experimental_target = "LmjIPCS (inositol phosphorylceramide synthase from L. major) (Leishmania major)"
quantity_measured = "inhibition"
unit_of_measurement = "%"
value_reported = 21

[[record]]
compound = "C[C@H]1[C@H](C)CC[C@]2(C(=O)O)CC[C@]3(C)C(=CC[C@@H]4[C@@]5(C)C[C@@H](O)[C@H](O)[C@@](C)(CO)[C@@H]5[C@H](O)C[C@]43C)[C@H]12"
experimental_target = "LmjIPCS (inositol phosphorylceramide synthase from L. major) (Leishmania major)"
quantity_measured = "inhibition"
unit_of_measurement = "%"
value_reported = 10

[[record]]
compound = "N[C@@H]1CON=C1O"
experimental_target = "LmjIPCS (inositol phosphorylceramide synthase from L. major) (Leishmania major)"
quantity_measured = "inhibition"
unit_of_measurement = "%"
value_reported = -1.4

